Hey, just so you know, these numbers are from patent US20250074901A1.

Target Of Assay: Kv7.2 (Homo sapiens, UniProt O43526)
Assay Remarks: Activation of Kv7.2 (in vitro assay, concentration response curve)
Condition Details: activation of Kv7.2
pEC50: −log10 of the molar value.
Measure Name: pEC50

// known answers, use as guide
Exercise: Provide the documented pEC50 with Kv7.2 (Homo sapiens, UniProt O43526) as the system for CC1(C)CCC(NC(=O)NCc2ccnc(-n3ccnc3)c2)CC1
Key: 5.88

Exercise: Query O=C(NCc1ccnc(OC(F)F)c1)NC1(C23CC(C2)C3)CC1 next
Key: 6.27

(a) C#CC1CC(NC(=O)NCc2ccnc(OC(F)F)c2)C1 (stereo not shown)
(b) COc1cc(CNC(=O)N[C@@H]2C[C@H]3CC[C@@H]2C3)ccn1 (racemic)
(c) Cc1cccc(NC(=O)NC(CO)c2ccnc(OCC(F)(F)F)c2)c1 (stereo not shown)
(d) COc1cc(CNC(=O)NC23CCC(F)(CC2)CC3)ccn1
(e) O=C(NCc1ccnc(OC(F)F)c1)NC1(C2CCC2)CC1
Exercise: Rank order required: pEC50, descending. Output the labels ranked as instructed.
Key: c, e, a, b, d
